Tested on: membrane compromised sperm
Test Protocol: Dead gate intensity divided by live gate intensity, flow cytometer (Example 5)
Assay type: cell-based
Conditions Used: dye 25 μM; Hoechst 16 μL/2 mL
Please respond with reported Dead Intensity for every item in the list.
Field format: number, assumed %, no unit text.

Form entry - test system: membrane compromised sperm; read-out: Dead Intensity; compound: `O=S1(=O)OC(c2ccc(O)cc2)(c2ccc(O)cc2)c2ccccc21`
90

Let us now turn to `O=C([O-])C1=NN(c2ccc(S(=O)(=O)[O-])cc2)C(=O)/C1=N/Nc1ccc(S(=O)(=O)[O-])cc1.[Na+].[Na+].[Na+]`
90

Same thing, different compound: COc1cc(S(=O)(=O)O)c(C)cc1N=Nc1c(O)ccc2cc(S(=O)(=O)O)ccc12 [Red 40, reference compound]
65

Another compound to look at: `O=S(=O)([O-])c1ccc(N=Nc2c(O)ccc3cc(S(=O)(=O)[O-])ccc23)cc1.[Na+].[Na+]`
70
